molecular target: T1, human MSLN protein endogenously expressed on OVCAR3 tumor cells (human, UniProt Q13421 296-598); experiment: FACS on OVCAR3 cells;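 note: flow cytometry binding of test antibodies to cells, 2 h incubation on ice, readout as cell mean fluorescence intensity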
T1 construct: whole, on cells; Endogenous target on OVCAR3 cells; kept apart from the recombinant full-length construct; also called mesothelin
T1 sequence (Q13421 other isoform, or with tags, fused parts or gaps): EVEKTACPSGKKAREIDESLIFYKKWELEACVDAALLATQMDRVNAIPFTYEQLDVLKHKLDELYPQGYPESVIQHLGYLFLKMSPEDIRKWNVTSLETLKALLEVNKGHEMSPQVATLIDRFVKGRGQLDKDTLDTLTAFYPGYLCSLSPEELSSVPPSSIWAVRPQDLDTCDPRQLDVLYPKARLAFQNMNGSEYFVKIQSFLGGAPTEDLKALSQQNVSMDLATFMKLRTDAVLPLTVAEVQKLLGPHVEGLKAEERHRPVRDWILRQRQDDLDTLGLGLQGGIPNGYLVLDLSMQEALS
READOUT KIND: Maximum mean fluorescence intensity
Hey, just send me the number, nothing else.

Here's what some known entries look like.
S009-F7.2.3 (antibody, human IgG1, kappa, V domains shown, human-murine chimeric antibody, human IgG1/kappa constant regions) VH: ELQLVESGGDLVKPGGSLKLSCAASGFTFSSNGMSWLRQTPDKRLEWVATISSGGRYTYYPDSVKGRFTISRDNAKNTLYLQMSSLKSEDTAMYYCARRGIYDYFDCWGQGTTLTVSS VL: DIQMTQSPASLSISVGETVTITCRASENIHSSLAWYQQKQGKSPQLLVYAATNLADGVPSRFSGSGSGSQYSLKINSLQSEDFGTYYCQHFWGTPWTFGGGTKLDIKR	22800
S009-F7.67.12 (antibody, human IgG1, kappa, V domains shown, human-murine chimeric antibody, human IgG1/kappa constant regions) VH: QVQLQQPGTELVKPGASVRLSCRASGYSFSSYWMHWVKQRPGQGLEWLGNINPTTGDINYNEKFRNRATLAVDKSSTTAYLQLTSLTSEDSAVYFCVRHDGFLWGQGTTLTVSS VL: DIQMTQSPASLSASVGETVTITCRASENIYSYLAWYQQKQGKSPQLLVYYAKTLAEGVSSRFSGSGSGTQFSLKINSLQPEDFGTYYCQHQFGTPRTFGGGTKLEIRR	29100
S009-F7.18.10 (antibody, human IgG1, kappa, V domains shown, human-murine chimeric antibody, human IgG1/kappa constant regions) VH: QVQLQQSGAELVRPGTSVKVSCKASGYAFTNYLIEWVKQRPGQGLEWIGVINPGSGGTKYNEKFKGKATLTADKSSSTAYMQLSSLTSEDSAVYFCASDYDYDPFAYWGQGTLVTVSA VL: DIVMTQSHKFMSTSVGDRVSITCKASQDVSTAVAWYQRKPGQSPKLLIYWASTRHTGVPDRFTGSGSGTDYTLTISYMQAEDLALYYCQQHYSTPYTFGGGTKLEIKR	29900
S009-F7.21.16 (antibody, human IgG1, kappa, V domains shown, human-murine chimeric antibody, human IgG1/kappa constant regions) VH: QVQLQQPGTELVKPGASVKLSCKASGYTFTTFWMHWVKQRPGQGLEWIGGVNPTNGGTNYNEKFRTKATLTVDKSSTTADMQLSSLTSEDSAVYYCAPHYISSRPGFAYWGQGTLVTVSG VL: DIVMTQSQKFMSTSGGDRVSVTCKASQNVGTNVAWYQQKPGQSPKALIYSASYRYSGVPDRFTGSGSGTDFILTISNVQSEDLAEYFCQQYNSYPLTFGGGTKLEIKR	32600

Ask | Which Maximum mean fluorescence intensity is listed for S009-F7.44.20 (antibody, human IgG1, kappa, V domains shown, human-murine chimeric antibody, human IgG1/kappa constant regions) VH: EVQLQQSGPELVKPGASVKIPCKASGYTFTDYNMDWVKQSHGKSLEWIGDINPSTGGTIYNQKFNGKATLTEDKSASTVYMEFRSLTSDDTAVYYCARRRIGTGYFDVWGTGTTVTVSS VL: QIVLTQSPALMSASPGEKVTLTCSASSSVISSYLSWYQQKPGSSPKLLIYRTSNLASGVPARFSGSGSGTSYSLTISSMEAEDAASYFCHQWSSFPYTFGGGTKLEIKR ?
Reply | 25700

Ask | What would you report for S009-F7.23.19 (antibody, human IgG1, kappa, V domains shown, human-murine chimeric antibody, human IgG1/kappa constant regions) VH: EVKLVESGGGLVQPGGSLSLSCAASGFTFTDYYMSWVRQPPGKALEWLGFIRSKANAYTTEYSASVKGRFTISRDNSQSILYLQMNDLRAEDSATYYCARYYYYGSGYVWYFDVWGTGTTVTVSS VL: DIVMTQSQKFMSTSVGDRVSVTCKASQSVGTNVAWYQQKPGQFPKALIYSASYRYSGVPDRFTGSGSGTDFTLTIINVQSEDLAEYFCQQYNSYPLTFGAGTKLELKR ?
Reply | 29300
